Values compiled from patent US10968178B2.

- subject_of_test: human IP6K1 (Homo sapiens)
- Construct: human IP6K1 (1-441) gene; GST; made in house; host or cells: Sf-9 insect cells
- Sequence (Q92551 whole entry): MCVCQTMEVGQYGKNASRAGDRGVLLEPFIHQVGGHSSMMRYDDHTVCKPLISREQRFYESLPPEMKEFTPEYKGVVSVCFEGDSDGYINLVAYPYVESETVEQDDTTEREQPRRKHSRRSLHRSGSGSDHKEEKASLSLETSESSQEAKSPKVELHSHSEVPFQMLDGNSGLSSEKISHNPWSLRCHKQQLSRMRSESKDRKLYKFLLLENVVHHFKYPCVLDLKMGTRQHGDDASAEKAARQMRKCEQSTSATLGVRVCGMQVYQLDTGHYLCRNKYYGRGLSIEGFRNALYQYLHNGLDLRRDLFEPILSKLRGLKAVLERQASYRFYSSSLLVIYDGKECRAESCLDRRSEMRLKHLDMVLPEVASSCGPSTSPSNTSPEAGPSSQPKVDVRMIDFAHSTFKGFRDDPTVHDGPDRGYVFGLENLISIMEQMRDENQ
- experiment_description: IP6K enzyme inhibitory assay (ADP-Glo Kinase Assay), human IP6K1
- Type: biochemical
- measurement_context: compound concentration 0.1 μM; read-out: ADP-Glo method inhibitory rate (%) human IP6K1
assay_readout: inhibition at 0.1 µM (%)

| compound | unit_abbreviation | inhibition at 0.1 µM |
| --- | --- | --- |
| O=C(O)c1ccc2c(c1)[C@]1(CC[C@@H](Oc3cc(F)cc(F)c3)CC1)C(=O)N2 | % | 72 |
| N#Cc1ccc(O[C@H]2CC[C@@]3(CC2)C(=O)Nc2ccc(C(=O)O)cc23)cc1Cl | % | 98 |
| O=C(O)c1ccc2c(c1)[C@]1(CC[C@@H](Oc3ccc(F)cc3)CC1)C(=O)N2 | % | 101 |
| O=C(O)c1ccc2c(c1)[C@]1(CC[C@@H](Oc3ccc(Cl)cn3)CC1)C(=O)N2 | % | 100 |
| O=C(O)c1ccc2c(c1)[C@]1(CC[C@@H](Oc3cc(C(F)(F)F)ccc3F)CC1)C(=O)N2 | % | 96 |
